Data credit: patent US8846951B2

molecular target: 5HT2C receptors (Homo sapiens, UniProt P28335); experiment: Human 5-HT2C functional high throughput screening assay in CHO-K1 cells (calcium flux); assay type: cell-based; parameters: expressed in transfected cells; host or cells: CHO-K1 cells; conditions: CHO-K1; 5-HT2C; maximum functional response as percentage relative to the effect of serotonin
attributeMeasured: Emax (%)
Answers are plain numbers, in %.

Before answering, review these 3 worked examples.
[
  {
    "compound": "CN1CC[C@@H]2CNC[C@H]2c2cccc(Cl)c21 (relative stereo)",
    "endpointValue": 100
  },
  {
    "compound": "CC(=O)N1CC[C@@H]2CNC[C@H]2c2ccccc21 (relative stereo)",
    "endpointValue": 90
  },
  {
    "compound": "Clc1cccc2c1OCC[C@H]1CNC[C@H]21 (relative stereo)",
    "endpointValue": 90
  }
]

Below is a list of compounds. For each, state its recorded Emax.
1. O=S(=O)(c1ccccc1)N1Cc2cccnc2[C@@H]2CNC[C@H]2C1 (relative stereo)
2. O=S(=O)(c1cccs1)N1Cc2cccnc2[C@@H]2CNC[C@H]2C1 (relative stereo)
3. CC(C)CNc1ccc2c(c1)C(=O)NC[C@@H]1CN(C)C[C@@H]21 (relative stereo)

A)
[80, 20, 80]

---

Target: 5HT2C receptors (Homo sapiens)
Sequence (P28335 33-458): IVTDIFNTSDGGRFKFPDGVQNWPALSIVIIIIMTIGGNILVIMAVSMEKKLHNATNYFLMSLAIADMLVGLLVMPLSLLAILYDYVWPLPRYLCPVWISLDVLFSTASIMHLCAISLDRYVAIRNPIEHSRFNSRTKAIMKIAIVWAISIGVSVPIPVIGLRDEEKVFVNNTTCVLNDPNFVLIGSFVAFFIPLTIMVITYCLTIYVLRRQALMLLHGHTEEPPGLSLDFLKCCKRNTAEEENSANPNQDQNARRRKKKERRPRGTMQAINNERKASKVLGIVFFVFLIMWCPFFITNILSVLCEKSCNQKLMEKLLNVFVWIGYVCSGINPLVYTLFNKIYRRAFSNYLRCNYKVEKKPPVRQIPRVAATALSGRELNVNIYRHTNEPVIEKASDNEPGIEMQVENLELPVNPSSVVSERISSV
Assay: Human 5-HT2C functional high throughput screening assay in CHO-K1 cells (calcium flux)
Format: cell-based
Set-up: expressed in transfected cells; host or cells: CHO-K1 cells
Settings: CHO-K1; 5-HT2C; maximum functional response as percentage relative to the effect of serotonin
attributeMeasured: Emax (%)
Numbers only, in %.

Before answering, review these 5 worked examples.
[
  {
    "molecule": "CC(C)c1ccc2c(c1)C(=O)NC[C@@H]1CN(C)C[C@@H]21 (relative stereo)",
    "systemName": "5HT2C receptors (Homo sapiens)",
    "endpointValue": 30
  },
  {
    "molecule": "O=C1NC[C@@H]2CN(Cc3ccccc3)C[C@H]2c2cccnc21 (relative stereo)",
    "systemName": "5HT2C receptors (Homo sapiens)",
    "endpointValue": 90
  },
  {
    "molecule": "FC(F)(F)Oc1cccc2c1OCC[C@H]1CNC[C@H]21 (relative stereo)",
    "systemName": "5HT2C receptors (Homo sapiens)",
    "endpointValue": 100
  },
  {
    "molecule": "CN1C[C@H]2CCOc3ncccc3[C@@H]2C1 (relative stereo)",
    "systemName": "5HT2C receptors (Homo sapiens)",
    "endpointValue": 70
  },
  {
    "molecule": "c1ccc2c(c1)OCC[C@H]1CNC[C@@H]21 (relative stereo)",
    "systemName": "5HT2C receptors (Homo sapiens)",
    "endpointValue": 120
  }
]

Q) Give the measured Emax for CN1C[C@H]2CNC(=O)c3cc(/C=C/C4CC4)ccc3[C@@H]2C1 (relative stereo)
A) 90

---

Target: 5HT2B receptors (Homo sapiens, UniProt P41595)
Construct: expressed in transfected cells; host or cells: CHO-K1 cells
Sequence (P41595 whole entry): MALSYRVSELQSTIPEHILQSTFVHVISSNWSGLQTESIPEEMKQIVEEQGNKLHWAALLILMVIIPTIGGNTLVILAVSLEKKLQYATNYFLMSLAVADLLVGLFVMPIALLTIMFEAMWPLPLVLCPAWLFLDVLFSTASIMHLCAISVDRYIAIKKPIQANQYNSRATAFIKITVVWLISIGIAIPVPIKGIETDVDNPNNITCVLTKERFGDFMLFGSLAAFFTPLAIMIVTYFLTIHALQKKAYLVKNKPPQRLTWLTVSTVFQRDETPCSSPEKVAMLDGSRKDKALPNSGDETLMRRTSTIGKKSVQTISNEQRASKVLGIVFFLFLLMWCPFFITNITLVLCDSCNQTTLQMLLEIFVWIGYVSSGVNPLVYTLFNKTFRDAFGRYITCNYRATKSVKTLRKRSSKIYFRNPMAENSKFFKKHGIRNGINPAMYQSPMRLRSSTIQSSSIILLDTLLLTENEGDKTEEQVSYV
Test: Human 5-HT2B functional high throughput screening assay in CHO-K1 cells (calcium flux)
Type: cell-based
Details: 5-HT2B agonist activity; CHO-K1 cells; calcium flux; read-out: EC50
Protocol: (iii) Human 5-HT2C and 5-HT2B Functional High Throughput Screening Assays in CHO-K1 Cells […] After incubation, the cell plates were transferred to FLIPR™ (MDS) and their fluorescence measurements were read at an excitation wavelength of 480 nm and an emission wavelength of 530 nm at 25° C. The baseline fluorescence was measured for the first 10 seconds and then 15 μL of 4× concentration of serotonin/test compound was added to the cells. […]
pEC50: −log10 of the molar value.
Consider the following compounds; for each one, report its pEC50.

[
  {
    "compound": "CC(=O)N1CC[C@@H]2CNC[C@H]2c2ccccc21 (relative stereo) [Example 328]",
    "systemName": "5HT2B receptors (Homo sapiens, UniProt P41595)",
    "endpointValue": 5.40
  }
]

Below is a list of compounds. For each, state its recorded pEC50.
1. c1ccc(-c2ccc3c(c2)[C@H]2CNC[C@@H]2CCO3)cc1 (relative stereo) [Example 215]
2. CN(C)C(=O)c1cccc(-c2ccc3c(c2)C(=O)NC[C@@H]2CNC[C@@H]32)c1 (relative stereo) [Example 230]

A)
1. 5.30
2. < 5.00

Below is a list of compounds. For each, state its recorded pEC50.
1. CN1C[C@H]2CNC(=O)c3cc(-c4ccccc4S(C)(=O)=O)ccc3[C@@H]2C1 (relative stereo) [Example 232]
2. CN1C[C@H]2CNC(=O)c3cc(C(=O)NCCc4cccc(C(F)(F)F)c4)ccc3[C@@H]2C1 (relative stereo) [Example 127]
3. CN1C[C@H]2CNC(=O)c3cc(-c4cccc(C#N)c4)ccc3[C@@H]2C1 (relative stereo) [Example 240]
4. COc1ccc(-c2ccc3c(c2)C(=O)NC[C@@H]2CN(C)C[C@@H]32)cc1C (relative stereo) [Example 315]

A)
["< 5.00", "< 5.00", "< 5.00", "< 5.00"]

Below is a list of compounds. For each, state its recorded pEC50.
1. CN1C[C@H]2CNC(=O)c3cc(-c4ccc5c(c4)C(=O)CC5)ccc3[C@@H]2C1 (relative stereo) [Example 251]
2. O=S(=O)(c1ccccc1C(F)(F)F)N1Cc2cccnc2[C@@H]2CNC[C@H]2C1 (relative stereo) [Example 365]

A)
["< 5.00", 6.10]

Below is a list of compounds. For each, state its recorded pEC50.
1. CCc1ccc(-c2ccc3c(c2)C(=O)NC[C@@H]2CN(C)C[C@@H]32)cc1 (relative stereo) [Example 139]
2. CN1C[C@@H]2CNC(=O)c3cc(-c4ccccn4)ccc3[C@H]2C1 [Example 388]
3. CN1C[C@H]2CNC(=O)c3cc(-c4cccc(C(C)(C)O)c4)ccc3[C@@H]2C1 (relative stereo) [Example 186]

A)
1. < 5.00
2. < 5.00
3. < 5.00

Below is a list of compounds. For each, state its recorded pEC50.
1. c1cnc2c(c1)[C@@H]1CNC[C@H]1CCO2 (relative stereo) [Example 264]
2. c1ccc(-c2cccc3c2OCC[C@H]2CNC[C@H]32)cc1 (relative stereo) [Example 397]
3. N#Cc1cccc(-c2ccc3c(c2)C(=O)NC[C@@H]2CNC[C@@H]32)c1 (relative stereo) [Example 239]
4. CN1C[C@@H]2CNC(=O)c3cc(-c4ccc5c(c4)C(O)CC5)ccc3[C@H]2C1 (stereo partly shown) [Example 310]

A)
1. 5.52
2. < 5.00
3. 5.70
4. < 5.00

---

Consider the following compounds; for each one, report its Emax.
target: 5HT2B receptors (Homo sapiens); construct: expressed in transfected cells; host or cells: CHO-K1 cells; test: Human 5-HT2B functional high throughput screening assay in CHO-K1 cells (calcium flux); format: cell-based; details: CHO-K1; 5-HT2B; maximum functional response as percentage relative to the effect of serotonin; read-out: Emax
One number for each entry, in %.

Before answering, review these 4 worked examples.
[
  {
    "compound": "c1ccc(-c2ccc3c(c2)[C@H]2CNC[C@@H]2CCO3)cc1 (relative stereo)",
    "systemName": "5HT2B receptors (Homo sapiens)",
    "unitInfo": "%",
    "Emax": 15
  },
  {
    "compound": "O=S(=O)(c1ccccc1C(F)(F)F)N1Cc2cccnc2[C@@H]2CNC[C@H]2C1 (relative stereo)",
    "systemName": "5HT2B receptors (Homo sapiens)",
    "unitInfo": "%",
    "Emax": 30
  },
  {
    "compound": "COc1ccccc1S(=O)(=O)N1Cc2cccnc2[C@@H]2CNC[C@H]2C1 (relative stereo)",
    "systemName": "5HT2B receptors (Homo sapiens)",
    "unitInfo": "%",
    "Emax": 95
  },
  {
    "compound": "O=S(=O)(c1ccccc1OC(F)(F)F)N1Cc2cccnc2[C@@H]2CNC[C@H]2C1 (relative stereo)",
    "systemName": "5HT2B receptors (Homo sapiens)",
    "unitInfo": "%",
    "Emax": 90
  }
]

Continue with the next compound.
Q) Give the measured Emax for O=S(=O)(c1cccc(C(F)(F)F)c1)N1Cc2cccnc2[C@@H]2CNC[C@H]2C1 (relative stereo)
A) 90
